Test: nonspecific potentiation of DAMGO calcium response – cell-based, HEK293 mu-opioid receptor line, counter-screen for TRPC4 allosteric potentiator project, confirmation (AID 449724);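 also: HEK293 cells carrying mu-opioid receptor only with no TRPC4 channel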
Details: HEK293 mu-opioid receptor cells, Fluo-4 calcium flux, at 10 µM, compound added before EC20 DAMGO stimulus; stronger effect = higher value
Active and inactive are the calls of the source.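 The calls were made as follows: active = calcium signal rise more than 3 SD above the low-dose agonist control mean, in both duplicate plates and the primary screen; inactive = the rest.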
readoutName: activation

Recorded results for 4 compounds are shown here.
CCCCCCCNC(=O)COc1ccc2c(c1)C(=O)CC(C)(C)O2: inactive
NCCNC(=O)c1c(NC(=O)c2ccccc2)sc2c1CCCC2: inactive
CC1Cc2ccccc2N1C(=O)CSc1nc2c(c(=O)n(C)c(=O)n2C)n1Cc1ccc(F)cc1 (stereo unspecified): inactive
Cc1nn(-c2ccccc2)c2nc(-c3ccccc3)cc(C(=O)N3CCOCC3)c12: inactive

For the compound CCOc1ccc2ccccc2c1CNCCc1ccc(S(N)(=O)=O)cc1 , give its measured activation value.
inactive

Determine from records and report activation for COCCn1c(SCC(=O)c2ccccc2)nc2ccccc2c1=O
inactive

Please report activation for the following compound: Cc1nc2ccccc2n1Cc1ccc(Br)cc1
inactive

Return the recorded activation value; entry: C=CCc1ccccc1OCC(CN1CCCCC1)OC(C)=O (stereo unspecified)
inactive

Give activation for the following compound: CC(C)c1nc(N2CCOCC2)c(C#N)c2c1CCCC2
inactive

Give reported activation value for COc1cccc(OCCOCCNCCO)c1
inactive

Please report the measured activation for Cc1cccc(NC(=O)c2cc([N+](=O)[O-])ccc2N2CCN(C)CC2)c1
inactive

----------
System: TRPC4 (transient receptor potential cation channel C4 beta), mouse
Assay: potentiation of DAMGO EC20 TRPC4 response – cell-based, second round, Fluo-4, HEK293 TRPC4beta/mu-opioid, 1 µM, confirmation (AID 2554)
Settings: DAMGO EC20, Fluo-4 calcium flux, at 1 µM
Activity calls are given as the source filed them.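 How the source made its calls: active means primary screen hit whose fluorescence ratio, in both repeats, exceeds the weak agonist control mean by 3 SD; inactive means the rest.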
# valid calls are active, inactive; nothing else

CN1CCN(Cc2nc3ccccc3n2C)CC1CCO (centres undefined): inactive

Lab log entry: CCCc1noc2c1/C(=N\O)CC(CC(C)SCC)C2 (centres undefined) — outcome as called in the assay?
inactive

Look up the recorded call for N=c1c(C(=O)NCc2ccc(F)cc2)cc2c(=O)n3ccccc3nc2n1Cc1ccco1 in this test.
inactive

Recorded test call requested for CCCn1c(N)c(C(=O)CSc2n[nH]c(-c3ccc(C)cc3)n2)c(=O)[nH]c1=O
inactive

Called result for CCCCC(=O)NC(=S)NNC(=O)c1ccc(Cl)cc1Cl
inactive

Please share the test call associated with Cc1ccccc1N1CC(O)(c2cccs2)[N+]2=C1CCCC2 (centres undefined) .
inactive

Hello, I am checking results. What call was entered for CCOC(=O)c1ccc(N=C2C(=S)N(c3ccc(C(=O)OCC)cc3)C(=N)N2/N=C/c2ccccc2)cc1 ?
inactive

----------
System: transient receptor potential cation channel C4 beta (TRPC4), mouse
Assay: TRPC4 cation channel opening, second retest – cell-based, second round, Fluo4, HEK293 TRPC4beta/mu-opioid, 1 µM, confirmation (AID 2461)
Conditions: Fluo4 calcium fluorescence, at 1 µM; stronger effect = higher value
The source made the active and inactive calls.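 The calls were made as follows: active = primary screen active and over 50% activation in each of two duplicate runs; inactive = the rest.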
readoutName: activation

The cases that follow already have their activation on record.
CCCCN(CC)CCCNC(=O)c1cc2cc3ccc(C)cc3nc2o1: inactive
CCCn1c(NCc2ccc(C)o2)nc2ccccc21: inactive
CCOc1ccc(-n2cnnn2)cc1S(=O)(=O)NCc1ccccc1: inactive
Cc1ccc(C(=O)NC(=S)Nc2c(C)ccc3nsnc23)cc1: inactive
CCCCCCCNC(=O)COc1ccc2c(c1)C(=O)CC(C)(C)O2: inactive
Cc1ccc(-c2c[n+](Cc3cccc(Cl)c3)c3n2CCC3)cc1: inactive
CC(C)Cc1ccc(CN2CCCC(NC(=O)CCn3cnnn3)C2)cc1 (stereo unspecified): inactive
CC(C)(C)NCc1cc(Cl)ccc1OCc1cccs1: inactive
CC(C)n1c(SCC(=O)N2c3ccccc3Sc3ccccc32)nc2c1c(=O)n(C)c(=O)n2C: inactive
Cc1ccc(C[n+]2cccc(-c3ccccc3)c2)c(C)c1: inactive

Hello, please tell me recorded activation for this one: Cc1ccccc1Cn1c(=N)n(CC(O)c2ccco2)c2ccccc21 (stereo unspecified)
inactive

----------
System: TRPC4 beta (transient receptor potential cation channel C4), mouse
Assay: potentiation of DAMGO EC20 TRPC4 response – cell-based, Fluo-4, HEK293 TRPC4beta/mu-opioid, confirmation (AID 2555)
Settings: DAMGO EC20, Fluo-4 calcium flux, at 10 µM
The source made the active and inactive calls.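 How the source made its calls: active means primary screen hit whose calcium fluorescence ratio, in both repeats, exceeds the weak agonist control mean by 3 SD; inactive means the rest.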
# output must be one of active, inactive

Could you check what this test reported for Cc1cc(=O)oc2cc(NC(=S)NCc3ccccn3)ccc12 ?
inactive

Each compound tested received a call. Report the one for Cc1cccc(NC(=O)CSc2nnc(-c3cc(C)n(-c4ccccc4)c3C)o2)c1C .
inactive

So what was the verdict on CC(C)n1c(SCC(=O)N2c3ccccc3Sc3ccccc32)nc2c1c(=O)n(C)c(=O)n2C in this test?
inactive

Tell me the assay call for N=c1c2c(n(Cc3ccccc3)c3c1CCC3)CCC2 please.
inactive

Record lookup: outcome of this test for Cc1ccc(NS(=O)(=O)c2cc(C(=O)N3CCc4ccccc4C3)ccc2Cl)cc1 ?
inactive

Which outcome was entered for the compound CCN(CC)c1ncnc2sc3c(c12)CCC3 in this test?
inactive

Could you please tell me the result logged for COc1cc(Cl)c(S(=O)(=O)N2CCN(Cc3ccc4c(c3)OCO4)CC2)cc1Cl in this assay?
active

For CCCCc1ccc(NC(=O)CSc2nnc(C)c(=O)n2N)cc1 , which call appears in the assay record?
active

Please state the recorded outcome for this compound: COc1ccc(C(=O)Nc2ccccc2N2CCN(C(=O)c3ccccc3)CC2)cc1Br
inactive

Any idea what this test logged for COc1cc(C2(c3ccc(O)c(OC)c3)C(=O)Nc3c(C)cc(Br)cc32)ccc1O ?
active

----------
Test system: TRPC4 (transient receptor potential cation channel C4 beta), mouse
Assay: potentiation of DAMGO EC20 TRPC4 response – cell-based, second round, Fluo-4, HEK293 TRPC4beta/mu-opioid, 1 µM, confirmation (AID 2554)
Settings: DAMGO EC20, Fluo-4 calcium flux, at 1 µM
The source made the active and inactive calls.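 The calls were made as follows: active = primary screen hit whose fluorescence ratio, in both repeats, exceeds the weak agonist control mean by 3 SD; inactive = the rest.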
Response enum: active, inactive

Example entries and their recorded answers appear below.
CN1CCN(c2ccc(NC(=O)c3ccc(-c4cccc([N+](=O)[O-])c4)o3)cc2)CC1: inactive
O=S(=O)(c1ccc(Cl)cc1Br)N1CCCCC1: inactive
COc1cc(NS(=O)(=O)c2ccc3ccccc3c2)c2ncccc2c1: inactive
O=C(NCCCN1CCOCC1)C1CCN(S(=O)(=O)c2c(Cl)cccc2Cl)CC1: inactive
O=C(Nc1ccncc1)c1ccc(Cl)c(S(=O)(=O)N2CCc3ccccc32)c1: inactive
COc1ccc(-n2nc(C(=O)NCC(=O)NCCCN3CC(C)CC(C)C3)c3ccccc3c2=O)cc1Cl (configuration not stated): inactive
Cc1cccc(-n2ccnc2CN2CCC(CO)(Cc3ccccc3)CC2)c1: inactive
CCc1nc2ccccc2n1Cc1ccccc1F: inactive

Please let me know the test result on file for Cc1ccc(NC(=O)CN(C)C(=O)CNC(=O)c2sc3ccccc3c2Cl)cc1 .
inactive

Fill in: this test's call for CN(C(=O)COC(=O)c1sc2ccccc2c1Cl)C1CCCCC1 is ___
inactive

Which outcome was entered for the compound CCCCN(C)CCNC(=S)Nc1ccc2nc(N3CCN(CC)CC3)cc(C)c2c1 in this test?
active

Hi, do you know how CCn1c(=O)c2cc(C(=O)N(C)c3cc(C)ccc3OC)sc2c2ccccc21 came out in this test?
inactive

Which outcome was assigned to CC(=O)n1cc([C@H]2C=C(C(=O)NCc3ccccc3)O[C@@H](OCc3ccc(CO)cc3)C2)c2ccccc21 in this test?
inactive

Assay result, entry Cc1oc(-c2cccc(F)c2)nc1CN(Cc1ccccc1)C[C@@H]1CCC(=O)N1 — outcome?
inactive

Lab log entry: Cc1noc(C)c1CCC(=O)NC1CCCN(Cc2ccc(CC(C)C)cc2)C1 (configuration not stated) — outcome as called in the assay?
inactive

Which outcome was assigned to CCOC(=O)CCSc1nc(C)cc(C(F)(F)F)c1C#N in this test?
inactive

So what was the verdict on CC(=O)Cc1nsc(NC(=O)c2csc3c2CCCC3)n1 in this test?
inactive

Tell me the assay call for CCOC(=O)c1c(-c2cccc(C)c2)csc1NC(=O)C1CC=CCC1C(=O)O (configuration not stated) please.
inactive

Short answer needed: outcome of this test for COC(=O)NCC(c1ccc2c(c1)OCO2)N1CCN(c2ccccc2)CC1 (configuration not stated) ?
inactive

State the result this test recorded for COc1ccc(C(=O)CCC(=O)Nc2cccc(Cl)c2)cc1 .
inactive

Status in this test for CN(CCc1ccccn1)C(=S)Nc1cccc(S(=O)(=O)N(C)C)c1 ?
inactive

Fill in: this test's call for Cc1cc(Cl)ccc1OC(C)C(=O)Nc1ccccc1N1CCOCC1 (configuration not stated) is ___
inactive

GET /call?item= COc1ccc(CCNC(=O)Cn2cnc3c(cnn3C(C)(C)C)c2=O)cc1OC returns the recorded outcome of this test.
inactive

Which outcome was assigned to N#C/C(=N\Nc1cccc([N+](=O)[O-])c1)C(=O)c1ccc(Br)cc1 in this test?
inactive

Hi, do you know how CCOCCCn1cnc2c(c1=O)c1nc3ccccc3nc1n2-c1ccc(C)cc1 came out in this test?
inactive

For CCOc1cc(O)c(-c2[nH]ncc2-c2nc(C)cs2)cc1CC , which call appears in the assay record?
inactive

Values were extracted from PubChem BioAssay.
